target: human aldehyde reductase (hALR1) (Homo sapiens); assay: Inhibition of human aldehyde reductase (hALR1), methods of Ishii et al.; format: biochemical
Sequence (P14550 whole entry): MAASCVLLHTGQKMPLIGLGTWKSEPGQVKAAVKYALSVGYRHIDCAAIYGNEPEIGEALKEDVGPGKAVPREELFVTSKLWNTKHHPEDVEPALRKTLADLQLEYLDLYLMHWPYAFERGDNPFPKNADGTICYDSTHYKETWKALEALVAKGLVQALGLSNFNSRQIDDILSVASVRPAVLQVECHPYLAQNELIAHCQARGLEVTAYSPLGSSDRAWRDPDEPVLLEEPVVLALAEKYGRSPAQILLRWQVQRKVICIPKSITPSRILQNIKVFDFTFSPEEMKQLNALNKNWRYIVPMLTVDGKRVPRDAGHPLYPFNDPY
pIC50: −log10 of the molar value.
reported.metric: pIC50

> print(dat)
                                   compound                                    system  result.modifier  endpoint.value
1  O=C(O)Cn1cc(Cc2nc3c(F)c(F)cc(F)c3s2)c2cc(Br)ccc21 [Example 31]  human aldehyde reductase (hALR1) (Homo sapiens)                =            5.01
2  Cc1ccc2c(c1)c(Cc1nc3cc(C(F)(F)F)ccc3s1)cn2CC(=O)O [Example 12]  human aldehyde reductase (hALR1) (Homo sapiens)                =            5.00
3  O=C(O)Cn1cc(Cc2nc3c(F)c(F)cc(F)c3s2)c2ccc(-c3ccccc3)cc21 [Example 16]  human aldehyde reductase (hALR1) (Homo sapiens)                =            5.21
4  O=C(O)Cn1cc(Cc2nc3cc(F)ccc3s2)c2ccccc21 [Example 23]  human aldehyde reductase (hALR1) (Homo sapiens)                =            5.19
5  O=C(O)Cn1cc(Cc2nc3cc(C(F)(F)F)ccc3s2)c2ccc(Br)cc21 [Example 27]  human aldehyde reductase (hALR1) (Homo sapiens)                >            5.30

----------
Each entry below lists one item and its recorded log10 IC50 value.
Biological target: human aldose reductase (hALR2) (Homo sapiens, UniProt P15121)
Experiment: Inhibition of human aldose reductase (hALR2), methods similar to Butera et al.
Assay type: biochemical
Experimental: Representative compounds of Formula Iwere tested for their potency, selectivity and efficacy as inhibitors of human aldose reductase. Since high potency of test compounds as inhibitors of aldose reductase is desirable, low hALR2 IC50 values are sought. On the other hand, high potency of test compounds as inhibitors of aldehyde reductase is undesirable, and high ALR1 IC50s values are sought. Accordingly, the hALR1/hALR2 ratio is used to determine the selectivity of the test compounds. […]
reported.metric: log10 IC50 (log10 of the value in nM)

> print(dat)
                                  structure                                    system  reported.metric  endpoint.value
1  O=C(O)Cn1cc(Cc2nc3c(F)c(F)cc(F)c3s2)c2cc(Cl)ccc21  human aldose reductase (hALR2) (Homo sapiens, UniProt P15121)       log10 IC50            1.00
2  O=C(O)Cn1c(-c2ccccc2)c(Cc2nc3c(F)c(F)cc(F)c3s2)c2ccccc21  human aldose reductase (hALR2) (Homo sapiens, UniProt P15121)       log10 IC50            2.00
3   O=C(O)Cn1cc(Cc2nc3cc(F)ccc3s2)c2ccccc21  human aldose reductase (hALR2) (Homo sapiens, UniProt P15121)       log10 IC50            0.95
4  O=C(O)Cn1cc(Cc2nc3c(F)c(F)cc(F)c3s2)c2ccc(-c3ccccc3)cc21  human aldose reductase (hALR2) (Homo sapiens, UniProt P15121)       log10 IC50            1.40
5  Cc1cccc2c(Cc3nc4c(F)c(F)cc(F)c4s3)cn(CC(=O)O)c12  human aldose reductase (hALR2) (Homo sapiens, UniProt P15121)       log10 IC50            0.78
6  O=C(O)Cn1cc(Cc2nc3c(F)c(F)cc(F)c3s2)c2c(Cl)cccc21  human aldose reductase (hALR2) (Homo sapiens, UniProt P15121)       log10 IC50            1.04
7  O=C(O)Cn1cc(Cc2nc3c(F)c(F)cc(F)c3s2)c2ccc(F)cc21  human aldose reductase (hALR2) (Homo sapiens, UniProt P15121)       log10 IC50            0.85
8  O=C(O)Cn1cc(Cc2nc3c(F)c(F)cc(F)c3s2)c2cc(N3CCOCC3)ccc21  human aldose reductase (hALR2) (Homo sapiens, UniProt P15121)       log10 IC50            0.90

----------
biological target: human aldose reductase (hALR2) (Homo sapiens); test: Inhibition of human aldose reductase (hALR2), methods similar to Butera et al.; type: biochemical; settings: ratio of hALR1 IC50 to hALR2 IC50 (selectivity)
Each entry below lists one item and its recorded HALR1/hALR2 value.
reported.metric: HALR1/hALR2

> print(dat)
                                   molecule                                    system  result.modifier  endpoint.value
1  O=C(O)Cn1cc(Cc2nc3cc(C(F)(F)F)ccc3s2)c2ccc(Br)cc21 [Example 27]  human aldose reductase (hALR2) (Homo sapiens)                <              96
2  O=C(O)Cn1cc(Cc2cccc([N+](=O)[O-])c2)c2ccccc21 [Example 13]  human aldose reductase (hALR2) (Homo sapiens)                =             178
3  O=C(O)Cn1cc(Cc2nc3c(F)c(F)cc(F)c3s2)c2ccc(-c3ccccc3)cc21 [Example 16]  human aldose reductase (hALR2) (Homo sapiens)                =             248
4  O=C(O)Cn1cc(Cc2nc3c(F)c(F)cc(F)c3s2)c2cc(Br)ccc21 [Example 31]  human aldose reductase (hALR2) (Homo sapiens)                =             746

----------
target: human aldose reductase (hALR2) (Homo sapiens); test: Inhibition of human aldose reductase (hALR2), methods similar to Butera et al.; format: biochemical; conditions: ratio of hALR1 IC50 to hALR2 IC50 (selectivity)
Each entry below lists one item and its recorded HALR1/hALR2 value.
reported.metric: HALR1/hALR2

> print(dat)
                                  structure  endpoint.value
1   O=C(O)Cn1cc(Cc2nc3cc(F)ccc3s2)c2ccccc21             720
2  Cc1ccc2c(c1)c(Cc1nc3cc(C(F)(F)F)ccc3s1)cn2CC(=O)O              98

----------
target: human aldose reductase (hALR2) (Homo sapiens); assay: Inhibition of human aldose reductase (hALR2), methods similar to Butera et al.; format: biochemical; details: read-out: hALR2 (IC50)
pIC50: −log10 of the molar value.
reported.metric: pIC50

> print(dat)
                                   compound                                    system  endpoint.value
1  O=C(O)Cn1cc(Cc2nc3c(F)c(F)cc(F)c3s2)c2ccc(N3CCOCC3)cc21 [Example 18]  human aldose reductase (hALR2) (Homo sapiens)            7.82

----------
Each entry below lists one item and its recorded pIC50 value.
target: human aldose reductase (hALR2) (Homo sapiens); test: Inhibition of human aldose reductase (hALR2), methods similar to Butera et al.; type: biochemical
pIC50: −log10 of the molar value.
reported.metric: pIC50

> print(dat)
                                    compound  reported.metric  endpoint.value
 1  O=C(O)Cn1cc(Cc2nc3c(F)c(F)cc(F)c3s2)c2cc(Br)ccc21 [Example 31]            pIC50            7.89
 2  COc1ccc2c(c1)c(Cc1nc3c(F)c(F)cc(F)c3s1)cn2CC(=O)O [Example 30]            pIC50            8.11
 3  O=C(O)Cn1cc(Cc2nc3c(F)c(F)cc(F)c3s2)c2cc(F)ccc21 [Example 9]            pIC50            7.96
 4  Cc1ccc2c(c1)c(Cc1nc3cc(C(F)(F)F)ccc3s1)cn2CC(=O)O [Example 12]            pIC50            6.99
 5  O=C(O)Cn1cc(Cc2cccc([N+](=O)[O-])c2)c2ccccc21 [Example 13]            pIC50            7.14
 6  O=C(O)Cn1cc(Cc2nc3cc(C(F)(F)F)ccc3s2)c2ccc(Br)cc21 [Example 27]            pIC50            7.28
 7  COc1ccc2c(Cc3nc4c(F)c(F)cc(F)c4s3)cn(CC(=O)O)c2c1 [Example 28]            pIC50            8.30
 8  Cc1ccc2c(c1)c(Cc1nc3c(F)c(F)cc(F)c3s1)cn2CC(=O)O [Example 4]            pIC50            8.10
 9  O=C(O)Cn1cc(Cc2nc3c(F)c(F)cc(F)c3s2)c2cc(OCc3ccccc3)ccc21 [Example 7]            pIC50            7.92
10  Cc1ccc2c(Cc3nc4c(F)c(F)cc(F)c4s3)cn(CC(=O)O)c2c1 [Example 10]            pIC50            8.30
11  O=C(O)Cn1cc(Cc2nc3c(F)c(F)cc(F)c3s2)c2cc(Oc3ccccc3)ccc21 [Example 19]            pIC50            7.52
12  O=C(O)Cn1cc(Cc2nc3c(F)c(F)cc(F)c3s2)c2cccc(Br)c21 [Example 21]            pIC50            7.85
13  O=C(O)CCn1cc(Cc2nc3c(F)c(F)cc(F)c3s2)c2ccccc21 [Example 26]            pIC50            7.77
14  Cc1c(Cc2nc3c(F)c(F)cc(F)c3s2)c2ccccc2n1CC(=O)O [Example 1]            pIC50            8.10
15  O=C(O)Cn1cc(Cc2nc3cc(C(F)(F)F)ccc3s2)c2ccccc21 [Example 11]            pIC50            7.00
16  O=C(O)Cn1cc(Cc2nc3c(F)c(F)cc(F)c3s2)c2cc(-c3ccccc3)ccc21 [Example 15]            pIC50            7.28
17  O=C(O)Cn1cc(Cc2nc3c(F)c(F)cc(F)c3s2)c2ccc(Cl)cc21 [Example 6]            pIC50            8.10
18  O=C(O)Cn1cc(Cc2nc3c(F)c(F)cc(F)c3s2)c2cccc(Cl)c21 [Example 22]            pIC50            8.04
19  CC(C(=O)O)n1cc(Cc2nc3c(F)c(F)cc(F)c3s2)c2ccccc21 (stereo not drawn) [Example 25]            pIC50            6.80
20  O=C(O)Cn1cc(Cc2nc3c(F)c(F)cc(F)c3s2)c2cccc(F)c21 [Example 20]            pIC50            8.15
21  O=C(O)Cn1cc(Cc2nc3ccc(Cl)cc3s2)c2ccccc21 [Example 32]            pIC50            6.18
